Target: cAMP-dependent protein kinase catalytic subunit alpha (Homo sapiens, UniProt P17612)
Test: Inhibition of PKACalpha in presence of 100 uM ATP
Conditions: read-out: IC50
EXPERIMENTAL_READOUT: IC50 (µM)

Solved cases below.
>>> print(df.to_string())
                           structure_smiles  experimental_readout  test_result
0  NCCCC[C@@H](NC(=O)CCCCCNC(=O)c1ccc(C(N)=O)cc1)C(=O)NCCCCCC(=O)N[C@H](CCCN=C(N)N)C(=O)N[C@H](CCCN=C(N)N)C(N)=O                  IC50           23
1  NCCCC[C@@H](NC(=O)CCCCCNC(=O)c1cccc(-c2ccnc(N)n2)c1)C(=O)NCCCCCC(=O)N[C@H](CCCN=C(N)N)C(=O)N[C@H](CCCN=C(N)N)C(N)=O                  IC50        0.061
2  NCCCC[C@@H](NC(=O)CCCCCNC(=O)c1ccccc1)C(=O)NCCCCCC(=O)N[C@H](CCCN=C(N)N)C(=O)N[C@H](CCCN=C(N)N)C(N)=O                  IC50          183

1. N=C(N)NCCC[C@@H](NC(=O)[C@@H](CCCNC(=N)N)NC(=O)CCCCCNC(=O)[C@@H](CCCCN)NC(=O)CCCCCNC(=O)Nc1ccc(C(N)=O)cc1)C(N)=O
2. NCCCC[C@@H](NC(=O)CCCCCNC(=O)c1cccc(-c2ccncc2)c1)C(=O)NCCCCCC(=O)N[C@H](CCCN=C(N)N)C(=O)N[C@H](CCCN=C(N)N)C(N)=O
Request: Recorded IC50 values differ for 1 and 2 ; which one is higher? Kindly give the label for the entry you pick.
Response: 1
(1: 240 µM, 2: 0.39 µM)

Data provenance: ChEMBL document CHEMBL1154334
